Molecular target: Xanthine oxidase originated from bovine milk (Bos taurus (Bovine))
Sequence (P80457 whole entry): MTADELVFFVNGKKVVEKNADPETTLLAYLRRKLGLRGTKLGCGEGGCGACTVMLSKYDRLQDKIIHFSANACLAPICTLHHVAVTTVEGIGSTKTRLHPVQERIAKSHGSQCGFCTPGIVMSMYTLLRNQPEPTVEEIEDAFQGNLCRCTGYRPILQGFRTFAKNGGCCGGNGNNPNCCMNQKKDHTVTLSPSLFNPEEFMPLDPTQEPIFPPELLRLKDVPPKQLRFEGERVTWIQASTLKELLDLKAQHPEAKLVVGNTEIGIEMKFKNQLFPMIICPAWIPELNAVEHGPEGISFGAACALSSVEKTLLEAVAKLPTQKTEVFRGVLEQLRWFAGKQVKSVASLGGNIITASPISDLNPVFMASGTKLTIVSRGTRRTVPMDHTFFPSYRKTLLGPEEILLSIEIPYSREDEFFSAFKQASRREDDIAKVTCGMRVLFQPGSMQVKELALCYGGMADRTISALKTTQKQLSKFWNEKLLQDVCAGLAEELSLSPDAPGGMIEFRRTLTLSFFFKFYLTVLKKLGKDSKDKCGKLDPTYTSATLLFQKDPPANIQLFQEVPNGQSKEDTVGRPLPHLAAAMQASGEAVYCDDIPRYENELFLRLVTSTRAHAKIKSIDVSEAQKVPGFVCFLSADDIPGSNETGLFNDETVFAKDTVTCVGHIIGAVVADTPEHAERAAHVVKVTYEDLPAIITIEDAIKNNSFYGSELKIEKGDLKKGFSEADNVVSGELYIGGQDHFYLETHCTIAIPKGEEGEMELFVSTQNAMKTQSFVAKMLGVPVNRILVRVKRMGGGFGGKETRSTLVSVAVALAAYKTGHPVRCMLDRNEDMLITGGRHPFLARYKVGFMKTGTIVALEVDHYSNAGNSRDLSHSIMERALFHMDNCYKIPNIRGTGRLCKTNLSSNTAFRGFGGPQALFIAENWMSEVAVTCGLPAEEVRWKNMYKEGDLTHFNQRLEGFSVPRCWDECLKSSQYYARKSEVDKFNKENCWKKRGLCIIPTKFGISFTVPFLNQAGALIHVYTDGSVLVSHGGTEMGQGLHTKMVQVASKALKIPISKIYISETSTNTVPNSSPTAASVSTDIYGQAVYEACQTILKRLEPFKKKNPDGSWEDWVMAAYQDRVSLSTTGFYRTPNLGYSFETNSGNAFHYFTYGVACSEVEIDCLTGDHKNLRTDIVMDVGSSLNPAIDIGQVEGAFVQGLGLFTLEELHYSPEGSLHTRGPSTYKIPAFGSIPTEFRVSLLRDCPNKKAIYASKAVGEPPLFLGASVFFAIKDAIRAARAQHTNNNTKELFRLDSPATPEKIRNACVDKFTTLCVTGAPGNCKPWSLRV
Assay: Xanthine oxidase inhibition activity (initial velocity of uric acid formation)
Assay type: biochemical
Details: 3 min incubation with test compound, substrate xanthine
Description: Xanthine oxidase originated from bovine milk was incubated for 3 min with test compounds, and the initial velocity of uric acid formation was determined by adding the substrate xanthine. The initial velocity of test compound at each concentration was converted to % inhibition rate on the basis of the initial velocity under the absence of the inhibitor, thereby the inhibitor concentration needed for 50% inhibition was calculated as IC50 values. […]
measurement-type: IC50 (nM)

Before answering, review these 8 worked examples.
compound=CC(C)Cn1cc(C#N)c2cc(-n3cc(C(=O)O)cn3)ccc21 measurement_type=IC50 value_reported=4.5
compound=CC(C)n1cc(C#N)c2cc(-c3ccc(C(=O)O)s3)ccc21 measurement_type=IC50 value_reported=4.7
compound=CC(C)n1cc(C#N)c2cc(-n3cnc(C(=O)O)n3)ccc21 measurement_type=IC50 value_reported=13
compound="CC(CF)n1cc(C#N)c2cc(-c3cc(C(=O)O)ccn3)ccc21 (stereo not drawn)" measurement_type=IC50 value_reported=6.2
compound=Cc1cc(C(=O)O)cc(-c2ccc3c(c2)c(C#N)cn3C(C)C)n1 measurement_type=IC50 value_reported=3940
compound=CC(C)n1cc(C#N)c2cc(-n3cnc(C(=O)O)c3)ccc21 measurement_type=IC50 value_reported=24
compound=COCCn1cc(C#N)c2cc(-n3cc(C(=O)O)cn3)ccc21 measurement_type=IC50 value_reported=3.8
compound=COCc1cc2cc(-n3cc(C(=O)O)cn3)cc(C#N)c2[nH]1 measurement_type=IC50 value_reported=17

(I) N#Cc1cn(C2CCC2)c2ccc(-n3cc(C(=O)O)cn3)cc12
(II) N#Cc1cn(CC2CC2)c2ccc(-n3cc(C(=O)O)c(C(F)(F)F)n3)cc12
(III) N#Cc1cc(-n2cc(C(=O)O)cn2)cc2cc(-c3ccccc3)[nH]c12
(IV) N#Cc1cn(CC2CC2)c2ccc(-n3cc(C(=O)O)cn3)cc12
# ascending order, key=IC50 // format: requested-order list of labels
IV, I, III, II
(IV: 2.8 nM, I: 6.9 nM, III: 24 nM, II: 21300 nM)
